Biological target: T1, recombinant human domain 1-3His6 of the cation-independent mannose-6-phosphate receptor (human, UniProt P11717 41-467)
T1 construct: Biotinylated (NHS-PEG4-biotin) for BLI; Glycosylated; also called hDom1-3His6; hCI-M6PRD1-D3
Assay: BLI exp 1, dissoc pH 7
Item-by-item account of koff
// return numeric value only (unit: s⁻¹, not printed)

Examples from the recorded data:
binder: anti-CI-M6PR VHH10 (VHH, His6-tagged; made in Pichia pastoris) VHH: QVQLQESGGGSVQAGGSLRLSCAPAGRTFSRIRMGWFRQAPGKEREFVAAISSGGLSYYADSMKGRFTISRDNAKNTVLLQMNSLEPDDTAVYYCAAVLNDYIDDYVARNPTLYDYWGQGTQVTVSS
experimental.result: 0.00148
//
binder: anti-CI-M6PR VHH11 (VHH, His6-tagged; made in Pichia pastoris) VHH: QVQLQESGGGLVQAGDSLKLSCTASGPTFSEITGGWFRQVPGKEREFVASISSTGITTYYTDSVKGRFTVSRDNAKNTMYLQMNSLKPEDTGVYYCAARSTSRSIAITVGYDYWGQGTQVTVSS
experimental.result: 0.00394

// query Give the value of koff reported for the following: anti-CI-M6PR VHH4 (VHH, His6-tagged; made in Pichia pastoris) VHH: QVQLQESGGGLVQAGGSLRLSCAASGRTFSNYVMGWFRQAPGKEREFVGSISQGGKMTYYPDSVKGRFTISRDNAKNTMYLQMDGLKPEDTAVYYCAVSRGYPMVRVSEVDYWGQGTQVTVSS
// result 0.00126

// query Give the value of koff reported for the following: anti-CI-M6PR VHH7 (VHH, His6-tagged (Pichia pastoris)) VHH: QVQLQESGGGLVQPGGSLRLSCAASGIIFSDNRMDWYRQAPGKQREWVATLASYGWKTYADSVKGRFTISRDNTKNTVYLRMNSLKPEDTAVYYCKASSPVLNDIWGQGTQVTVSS
// result 0.00698

// query Give the value of koff reported for the following: anti-CI-M6PR VHH8 (VHH, His6-tagged (Pichia pastoris)) VHH: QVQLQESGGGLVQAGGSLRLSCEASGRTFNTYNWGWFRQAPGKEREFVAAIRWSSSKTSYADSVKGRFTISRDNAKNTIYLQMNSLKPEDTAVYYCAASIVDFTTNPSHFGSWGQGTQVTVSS
// result 0.00368

// query Give the value of koff reported for the following: anti-CI-M6PR VHH3 (VHH, His6-tagged; made in Pichia pastoris) VHH: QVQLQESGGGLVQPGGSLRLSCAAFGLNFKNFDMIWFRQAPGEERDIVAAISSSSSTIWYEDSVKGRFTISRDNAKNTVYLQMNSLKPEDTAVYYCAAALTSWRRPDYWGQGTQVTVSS
// result 0.000604

// query Give the value of koff reported for the following: anti-CI-M6PR VHH5 (VHH, His6-tagged; made in Pichia pastoris, later also in E. coli WK6) VHH: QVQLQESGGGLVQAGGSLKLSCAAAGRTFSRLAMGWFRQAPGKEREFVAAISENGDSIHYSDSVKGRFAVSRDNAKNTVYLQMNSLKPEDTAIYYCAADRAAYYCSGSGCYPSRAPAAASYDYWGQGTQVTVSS
// result 0.000412

// query Give the value of koff reported for the following: anti-CI-M6PR VHH9 (VHH, His6-tagged; made in Pichia pastoris) VHH: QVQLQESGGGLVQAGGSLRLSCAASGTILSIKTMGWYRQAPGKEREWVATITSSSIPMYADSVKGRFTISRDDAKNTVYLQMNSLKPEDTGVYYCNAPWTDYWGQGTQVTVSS
// result 0.00051

// query Give the value of koff reported for the following: anti-CI-M6PR VHH6 (VHH, His6-tagged; made in E. coli) VHH: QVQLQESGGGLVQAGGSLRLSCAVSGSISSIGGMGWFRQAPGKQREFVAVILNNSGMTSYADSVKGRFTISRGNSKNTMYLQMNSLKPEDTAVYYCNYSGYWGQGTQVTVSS
// result 0.00227

// query Give the value of koff reported for the following: anti-CI-M6PR VHH2 (VHH, His6-tagged; made in Pichia pastoris) VHH: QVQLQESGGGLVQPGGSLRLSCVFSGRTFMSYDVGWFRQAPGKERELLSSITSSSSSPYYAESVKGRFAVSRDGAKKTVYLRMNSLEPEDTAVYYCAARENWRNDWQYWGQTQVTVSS
// result 0.0161
